All figures here come from ChEMBL document CHEMBL3885881.

species on record: Rattus norvegicus; experiment: DrugMatrix - Regimen: Daily Repeat; type: toxicity, organism-based, Sprague-Dawley; parameters: regimen Daily Repeat, gender Male, age 6-8 weeks; settings: in vivo, po, 0 mg/kg, 72 h, tissue Plasma, route oral GAVAGE, dose level Control, time 3 day, vehicle 100 % WATER
parameterMeasured: SODIUM (MEQ/L)
Write down the numeric answer in MEQ/L and omit the unit.

compound: Cn1c(=O)c2[nH]cnc2n(C)c1=O.O
unitsText: MEQ/L
SODIUM: 143.9

compound: Oc1cccc(O)c1O
unitsText: MEQ/L
SODIUM: 148.5

compound: CN(C)CC[C@@H](c1ccc(Cl)cc1)c1ccccn1
unitsText: MEQ/L
SODIUM: 145.2

compound: CS(=O)(=O)c1ccc([C@@H](O)[C@@H](CO)NC(=O)C(Cl)Cl)cc1
unitsText: MEQ/L
SODIUM: 143.57

compound: CC(C)(C)CC(C)(C)c1ccc(OCCOCC[N+](C)(C)Cc2ccccc2)cc1.[Cl-] [BENZETHONIUM CHLORIDE]
unitsText: MEQ/L
SODIUM: 140.5

compound: O.O.O.O.O.O.[Cl-].[Cl-].[Sr+2] [STRONTIUM CHLORIDE HEXAHYDRATE]
unitsText: MEQ/L
SODIUM: 143.57

**Q:** // lookup SODIUM for CN(C)CCOC(c1ccccc1)c1ccccc1 [DIPHENHYDRAMINE]
**A:** 140.5

**Q:** May I ask what SODIUM has been recorded for CCN(CC)CCNC(=O)c1cc(S(C)(=O)=O)ccc1OC [TIAPRIDE] ?
**A:** 143.57

###

// values below are reported URIC ACID
species on record: Rattus norvegicus; assay: DrugMatrix - Regimen: Daily Repeat; type: toxicity, organism-based, Sprague-Dawley; parameters: regimen Daily Repeat, gender Male, age 6-8 weeks; conditions: in vivo, po, 0 mg/kg, 120 h, tissue Plasma, route oral GAVAGE, dose level Control, time 5 day, vehicle .5 % CMC
Hi! Could you send only the number? It should be in mg/dL, unit omitted.

**Q:** Could you tell me which URIC ACID is on file for CN/C(=N/CCSCc1nc[nH]c1C)NC#N [CIMETIDINE] ?
**A:** 1.5

**Q:** Bench note: what URIC ACID did C[C@H]1O[C@@H](n2cc(F)c(=O)[nH]c2=O)[C@H](O)[C@@H]1O [DOXIFLURIDINE] show?
**A:** 1.5

**Q:** What value of measured URIC ACID is listed for Cn1c(=O)c2c(ncn2CC(O)CO)n(C)c1=O (stereo not given) [DYPHYLLINE] ?
**A:** 1.63

**Q:** Fill blank: measured URIC ACID of the molecule O=C1Nc2ccc(Cl)cc2C(c2ccccc2Cl)=NC1O (stereo not given) [LORAZEPAM] is ____.
**A:** 1.45

**Q:** I have this molecule here, CCN(CC)CCOc1ccc(/C(=C(/Cl)c2ccccc2)c2ccccc2)cc1 [ENCLOMIPHENE] , and I need its recorded URIC ACID.
**A:** 1.83

###

species on record: Rattus norvegicus; test: DrugMatrix - Regimen: Daily Repeat; type: toxicity, organism-based, Sprague-Dawley; design: regimen Daily Repeat, gender Male, age 6-8 weeks; details: in vivo, po, 0 mg/kg, 120 h, tissue Blood, route oral GAVAGE, dose level Control, time 5 day, vehicle 100 % WATER
// values below are reported ERYTHROCYTE COUNT
The response must be a number in x10E6/uL with no trailing unit.

Previously resolved entries follow.
molecule: CCN(CC)CCNC(=O)c1cc(S(C)(=O)=O)ccc1OC [TIAPRIDE]
assayResult: 5.82
--
molecule: CN(C)CC[C@@H](c1ccc(Cl)cc1)c1ccccn1
assayResult: 5.84

Would you kindly look at the next entry?
**Q:** What value of ERYTHROCYTE COUNT has been reported for the following molecule? CC(C)NCC(O)c1ccc(NS(C)(=O)=O)cc1 (centres undefined)
**A:** 5.68

###

species on record: Rattus norvegicus; assay: DrugMatrix - Regimen: Daily Repeat; type: toxicity, organism-based, Sprague-Dawley; set-up: regimen Daily Repeat, gender Male, age 6-8 weeks; settings: in vivo, po, 0 mg/kg, 120 h, tissue Plasma, route oral GAVAGE, dose level Control, time 5 day, vehicle 100 % WATER
Here the recorded PHOSPHORUS is given for each entry.
Enter your answer as a number in mg/dL; do not include the unit.

compound: NNc1nncc2ccccc12 [HYDRALAZINE]
unitsText: mg/dL
PHOSPHORUS: 11.25
--
compound: Cn1c(=O)c2[nH]cnc2n(C)c1=O.O
unitsText: mg/dL
PHOSPHORUS: 11.83

**Q:** What value of PHOSPHORUS has been recorded for this entry: CN(C)CCOC(c1ccccc1)c1ccccc1 [DIPHENHYDRAMINE]
**A:** 11.25

**Q:** For the compound shown here, CS(=O)(=O)c1ccc([C@@H](O)[C@@H](CO)NC(=O)C(Cl)Cl)cc1 , give the reported PHOSPHORUS.
**A:** 12.17

**Q:** Consider the compound CC(C)(C)CC(C)(C)c1ccc(OCCOCC[N+](C)(C)Cc2ccccc2)cc1.[Cl-] [BENZETHONIUM CHLORIDE] and give its measured PHOSPHORUS.
**A:** 11.25

**Q:** Item CN(C)CC[C@@H](c1ccc(Cl)cc1)c1ccccn1 has what recorded PHOSPHORUS?
**A:** 11.65

**Q:** // PHOSPHORUS lookup, key: Oc1cccc(O)c1O
**A:** 11.28

**Q:** What does the data say about its PHOSPHORUS? Entry: CN1[C@@H]2CC[C@H]1C[C@@H](OC(=O)C(CO)c1ccccc1)C2 (some centres undefined)
**A:** 10.63

**Q:** Param item = CC(C)NCC(O)c1ccc(NS(C)(=O)=O)cc1 (centres undefined) ; retrieve measured PHOSPHORUS.
**A:** 12.92

###

organism: Rattus norvegicus; assay: DrugMatrix - Regimen: Daily Repeat; format: toxicity, organism-based, Sprague-Dawley; set-up: regimen Daily Repeat, gender Male, age 6-8 weeks; settings: in vivo, po, 0 mg/kg, 72 h, tissue Plasma, route oral GAVAGE, dose level Control, time 3 day, vehicle 100 % WATER
parameterMeasured: LIPASE
Param answer (str): number followed by unit.

compound: CN(C)CC[C@@H](c1ccc(Cl)cc1)c1ccccn1
parameterMeasured: LIPASE
assayResult: 11.17 u/L
//
compound: CN1[C@@H]2CC[C@H]1C[C@@H](OC(=O)C(CO)c1ccccc1)C2 (some centres undefined)
parameterMeasured: LIPASE
assayResult: 10.17 u/L
//
compound: CS(=O)(=O)c1ccc([C@@H](O)[C@@H](CO)NC(=O)C(Cl)Cl)cc1
parameterMeasured: LIPASE
assayResult: 8.83 u/L
//
compound: CC(C)(C)CC(C)(C)c1ccc(OCCOCC[N+](C)(C)Cc2ccccc2)cc1.[Cl-] [BENZETHONIUM CHLORIDE]
parameterMeasured: LIPASE
assayResult: 11.17 u/L

**Q:** Which LIPASE is listed for CN(C)CCOC(c1ccccc1)c1ccccc1 [DIPHENHYDRAMINE] ?
**A:** 11.17 u/L

**Q:** Quick one: LIPASE of Cc1ccc(NC(=O)c2ccc(CN3CCN(C)CC3)cc2)cc1Nc1nccc(-c2cccnc2)n1 ?
**A:** 8.83 u/L

###

species on record: Rattus norvegicus; experiment: DrugMatrix - Regimen: Daily Repeat; assay type: toxicity, organism-based, Sprague-Dawley; parameters: regimen Daily Repeat, gender Male, age 6-8 weeks; conditions: in vivo, po, 50 mg/kg, 120 h, tissue Blood, route oral GAVAGE, dose level Low, time 5 day, vehicle .5 % CMC
// reported MEAN CORPUSCULAR VOLUME for each item listed

Below, each entry is followed by its recorded MEAN CORPUSCULAR VOLUME result.
compound: CCN1CCC[C@H]1CNC(=O)c1cc(S(N)(=O)=O)ccc1OC [LEVOSULPIRIDE]
assayResult: 58.9 fL
//
compound: NC1CCN(c2nc3c(cc2F)c(=O)c(C(=O)O)cn3-c2ccc(F)cc2F)C1 (centres undefined) [TOSUFLOXACIN]
assayResult: 56.57 fL
//
compound: CN(C)[C@@H]1C(O)=C(C(N)=O)C(=O)[C@@]2(O)C(O)=C3C(=O)c4c(O)ccc(Cl)c4[C@@](C)(O)[C@H]3C[C@@H]12 [CHLORTETRACYCLINE]
assayResult: 60.17 fL

Pending compound:
**Q:** Name the reported MEAN CORPUSCULAR VOLUME value associated with the compound Cc1cccc(C)c1OCC(C)N (centres undefined) [MEXILETINE]
**A:** 63.13 fL

###

organism: Rattus norvegicus; assay: DrugMatrix - Regimen: Daily Repeat; type: toxicity, organism-based, Sprague-Dawley; set-up: regimen Daily Repeat, gender Male, age 6-8 weeks; details: in vivo, po, 10 mg/kg, 72 h, tissue Blood, route oral GAVAGE, dose level Low, time 3 day, vehicle .5 % CMC
Reported EOSINOPHIL values follow for various molecules
Value expressed in %; do not type the unit.

Please review the entries below; each comes with its answer.
molecule: O=C1CN=C(c2ccccc2Cl)c2cc([N+](=O)[O-])ccc2N1
EOSINOPHIL / %: 0
--
molecule: Fc1ccc(C(c2ccc(F)cc2)N2CCN(C/C=C/c3ccccc3)CC2)cc1
EOSINOPHIL / %: 0
--
molecule: O=C1C(CC[S+]([O-])c2ccccc2)C(=O)N(c2ccccc2)N1c1ccccc1 (centres undefined)
EOSINOPHIL / %: 1

**Q:** Consider the molecule CNCCC(Oc1ccc(C(F)(F)F)cc1)c1ccccc1 (centres undefined) and give its measured EOSINOPHIL.
**A:** 0
